tested on: T. b. rhodesiense KETRI 243; experiment: In vitro trypanocidal activity, bloodforms in HMI-18 medium, Coulter counts; type: cell-based, Trypanosoma brucei rhodesiense; settings: 48 h exposure
measure: IC50 (nM)
Give bare numbers, in nM.

Batch: IC50 for all items listed.
1. O=[N+]([O-])c1ccc(N2CCN(c3ccc([N+](=O)[O-])cc3)CC2)cc1
2. CCCCCCCCNC(=N)c1ccc(N2CCN(c3ccc(C(=N)NCCCCCCCC)cc3)CC2)cc1.Cl.Cl
3. N=C(N)c1ccc(OCc2ccccc2COc2ccc(C(=N)N)cc2)cc1
4. Cl.Cl.N=C(NC1CCC1)c1ccc(N2CCN(c3ccc(C(=N)NC4CCC4)cc3)CC2)cc1
5. CCNC(=N)c1ccc(N2CCN(c3ccc(C(=N)NCC)cc3)CC2)cc1.Cl.Cl

(A)
[250, 19, 2.55, 51, 33]

Batch: IC50 for all items listed.
1. c1cc(N2CCN(c3ccc(C4OCCO4)cc3)CC2)ccc1C1OCCO1
2. N=C(N)c1ccc(NC(=O)CCCCCCCC(=O)Nc2ccc(C(=N)N)cc2)cc1
3. N=C(N)c1ccc(COc2ccccc2OCc2ccc(C(=N)N)cc2)cc1

(A)
[2300, 240, 2.1]
